- tested on: T1, transferrin receptor 1 (TfR1), human (human, UniProt P02786 1-760)
- T1 construct: whole, on cells; always tested on cells; also called human TfR1; native TfR1
- T1 sequence (P02786 whole entry): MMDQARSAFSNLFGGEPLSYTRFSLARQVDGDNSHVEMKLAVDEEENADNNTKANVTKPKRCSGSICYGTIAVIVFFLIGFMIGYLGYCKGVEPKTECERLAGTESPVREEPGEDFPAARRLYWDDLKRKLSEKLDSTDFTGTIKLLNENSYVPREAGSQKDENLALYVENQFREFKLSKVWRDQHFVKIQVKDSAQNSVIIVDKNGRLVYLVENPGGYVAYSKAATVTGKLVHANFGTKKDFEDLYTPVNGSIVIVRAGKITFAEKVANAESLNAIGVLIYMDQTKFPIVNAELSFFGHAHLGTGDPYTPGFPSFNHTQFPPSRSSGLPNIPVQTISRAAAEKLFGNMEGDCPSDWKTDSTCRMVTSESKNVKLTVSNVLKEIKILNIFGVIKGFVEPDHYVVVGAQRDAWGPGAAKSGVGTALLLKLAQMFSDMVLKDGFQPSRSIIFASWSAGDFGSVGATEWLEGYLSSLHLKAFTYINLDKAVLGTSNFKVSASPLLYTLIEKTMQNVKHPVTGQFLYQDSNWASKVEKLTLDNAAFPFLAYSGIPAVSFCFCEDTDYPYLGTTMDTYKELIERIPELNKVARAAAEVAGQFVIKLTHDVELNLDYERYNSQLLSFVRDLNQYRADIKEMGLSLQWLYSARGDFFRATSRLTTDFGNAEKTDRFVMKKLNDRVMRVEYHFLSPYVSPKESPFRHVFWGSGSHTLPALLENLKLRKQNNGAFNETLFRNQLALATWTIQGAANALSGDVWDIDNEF
- experiment notes: FACS on human Raji cells, anti-human IgG1-FITC
outcome measure: binding result

Ask: In one line, give reported binding result of the entry H9 scFv2-Fc (Fc fusion, Bivalent (scFv)2-Fc; also called H9-Fc; not shown: Fc fragment of human IgG1 (pFUSE-hFc2(IL2ss) vector)) QVQLAESGGGLVKPGGSLRLSCAASGFTFSDYYMSWIRQAPGKGLEWVSYISTSGSSIYYVDSVKGRFTISRDNAKNSLYLQMDSLRDDDTAVYYCARDLHGDYAFDSWGQGTLVTVSSGGGGSGGGGSGGGGSSELTQDPAVSVALGQTVRITCQGDSLRSYYASWYQQKPGQAPVLVIYGKNNRPSGIPDRFSGSKSGNSASLDISGLQSEDEADYYCATWDDNLSGPIFGGGTKVTVLG .
Reply: binds

Ask: Report binding result for G9 scFv2-Fc (Fc fusion, Bivalent (scFv)2-Fc; also called G9-Fc; not shown: Fc fragment of human IgG1 (pFUSE-hFc2(IL2ss) vector)) QVQLVESGGGLVEPGGSLRLSCAASGFTFSNYAINWVRQAPGKGLEWVANIHHDGNGKYYVDSVEGRFTISRDNAKNSLYLQMDSLRAEDTAIYYCARDGYGGYLDLWGQGTLVTVSSGGGGSGGGGSGGGGSSELTQDPAVSVALGQTVRITCQGDSLRSYYASWYQQKPGQAPVLVIYGKNNRPSGIPDRFSGSGSGNTASLTITGAQAEDEADYYCAAWDDSLSGPVFGGGTKVTVLG
Reply: binds

Ask: Retrieve binding result measured for F2 scFv2-Fc (Fc fusion, Bivalent (scFv)2-Fc; also called F2-Fc; not shown: Fc fragment of human IgG1 (pFUSE-hFc2(IL2ss) vector)) QVQLQQSGGGVVQPGGSLRLSCAASEFTFSASGMHWVRQAPGKGLEWMAFIAYDGNQKFYADSVKGRFTISRDNSKNTLYLQMDSLRGEDTAVYYCAKEMQREGYFDYWGQGTLVTVSSGGGGSGGGGSGGGGSNFMLTQDPAVSVALGQTVRITCQGDSLRSYYASWYQQKPGQAPVLVIYGKNNRPSGIPDRFSGSKSGNSASLDISGLQSEDEADYYCATWDDNLSGPIFGGGTKVTVLG and print it.
Reply: binds
